# ASSAY OVERVIEW: viability loss with induced miR-34 in A549 – imaging, A549 dox-inducible miR-34, nuclei and caspase counts, primary screen (AID 1347080)
# EXPERIMENTAL CONDITIONS: A549 miR-34 inducible, Hoechst nuclei count, 48 h; stronger effect = lower value; cell number ratio, induced over uninduced
Peptide text beside a SMILES is read from it.
RECORDED ENDPOINT: fold change
Keep it simple and answer with nothing but the number.

// worked examples, fold change included
COMPOUND: Cc1cc(C(C)(C)C)c(O)c(C(C)(C)C)c1
RECORDED ENDPOINT: fold change
DATA VALUE: 0.871

COMPOUND: O=C(O)CCNC(=O)c1ccccc1
RECORDED ENDPOINT: fold change
DATA VALUE: 0.9

COMPOUND: C[C@@H]1CN(c2c(F)c(F)c3c(=O)c(C(=O)O)cn(C4CC4)c3c2F)C[C@H](C)N1
RECORDED ENDPOINT: fold change
DATA VALUE: 0.896

Reported fold change ( COc1ccc(-c2cc(C(F)F)nn2-c2ccc(S(N)(=O)=O)cc2)cc1F ) = 0.791

In plain terms, CC1CC(OC(=O)C(O)c2ccccc2)CC(C)(C)N1C (configuration not stated) has a documented fold change of 0.792

// fold change value for C=Cc1c(C)c2cc3[nH]c(cc4nc(cc5nc(cc1[nH]2)C(C)=C5CCC(=O)O)C(CCC(=O)O)=C4C)c(C)c3C=C : 1.04

Lab book: fold change of CC(C)(O)c1ccccc1CC[C@@H](SCC1(CC(=O)O)CC1)c1cccc(/C=C/c2ccc3ccc(Cl)cc3n2)c1 noted as 0.896

Entry COC(=O)[C@H](Cc1ccccc1)NC(=O)[C@@H](N)CC(=O)O (H-Asp-Phe-OMe) — recorded fold change = 0.869

Record Oc1c(Br)cc(Br)c2cccnc12 . Reported fold change: 0.97

Entry CC(N)CCCC(C)(C)O (configuration not stated) ; fold change = 0.926

The recorded fold change for Oc1ccc(Cl)c2cccnc12 is 0.902

Reported fold change ( NC(=O)c1ncn([C@@H]2O[C@H](CO)[C@@H](O)[C@H]2O)c1O ) = 1.09

In plain terms, CN(C)CC/C=C1/c2ccccc2COc2ccc(CC(=O)O)cc21 has a documented fold change of 0.88

The compound listed as NC(Cc1ccc(Cl)cc1)C(=O)O (configuration not stated) shows fold change equal to 0.993

Looking up O=C1c2cccc(O)c2C(=O)c2c(O)cccc21 , I see its fold change listed as 0.868

O=C(O)c1cc(O)c(O)c(O)c1 has a reported fold change of 0.943

Data point: O=c1[nH]c(=O)n([C@H]2C[C@H](O)[C@@H](CO)O2)cc1F ; fold change = 1.03

Measured fold change of CCN(CC)Cc1cc(Nc2ccnc3cc(Cl)ccc23)ccc1O : 0.891

* * *

# ASSAY OVERVIEW: EMT-state selective cytotoxicity in co-culture – imaging, PC-3E GFP, TEM4-18 mCherry, primary screen (AID 1345086);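 further: cells exposed to compound for 72 h before imaging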
# EXPERIMENTAL CONDITIONS: PC-3E GFP / TEM4-18 mCherry co-culture, imaging cell counts; measured here: epithelial PC-3E GFP cell survival; at 1 µM
Tick Yes if normalised cell number is 1 or greater. Tick No if normalised cell number is less than 1.

Worked examples follow.
COMPOUND: O=NN(CCCl)C(=O)NC1CCCCC1
CLASS: Yes
--
COMPOUND: C[N+]12CCC(CC1)C(OC(=O)C(O)(c1ccccc1)c1ccccc1)C2 (stereo not given)
CLASS: Yes
--
COMPOUND: CCCCOc1cc(C(=O)NCCN(CC)CC)c2ccccc2n1
CLASS: Yes
--
COMPOUND: COc1ccc(-c2cc(C(F)F)nn2-c2ccc(S(N)(=O)=O)cc2)cc1F
CLASS: Yes
--
COMPOUND: Oc1cccc(O)c1
CLASS: No
--
COMPOUND: O=C1C(=O)c2ccccc2C(O)=C1C1CCC(c2ccc(Cl)cc2)CC1 (stereo not given)
CLASS: Yes
--
COMPOUND: CCCCNc1ccc(C(=O)OCCN(C)C)cc1
CLASS: Yes
--
COMPOUND: Cc1cnc(C(=O)O)c[n+]1[O-]
CLASS: Yes
--
COMPOUND: CCN(CC)CCNC(=O)c1cc(Br)c(N)cc1OC
CLASS: No
--
COMPOUND: COc1cc(C(=O)OCCCN2CCCN(CCCOC(=O)c3cc(OC)c(OC)c(OC)c3)CC2)cc(OC)c1OC
CLASS: No

Prompt: hey, is normalised cell number for this one >= 1? Cc1cc(C)cc(OCC2CNC(=O)O2)c1 (stereo not given)
Response: No

Prompt: Record CCOC(=O)C(C)(C)Oc1ccc(Cl)cc1 ; criterion: normalised cell number no lower than 1. Met?
Response: Yes

* * *

# ASSAY OVERVIEW: EMT-state selective cytotoxicity in co-culture – imaging, PC-3E GFP, TEM4-18 mCherry, primary screen (AID 1345086);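 further: cells exposed to compound for 72 h before imaging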
# EXPERIMENTAL CONDITIONS: PC-3E GFP / TEM4-18 mCherry co-culture, imaging cell counts; measured here: epithelial PC-3E GFP cell survival; at 1 µM
RECORDED ENDPOINT: normalised cell number

COMPOUND: CC(N)CCCC(C)(C)O (configuration not stated)
DATA VALUE: 0.99
--
COMPOUND: Nc1[nH]c(=O)ncc1F
DATA VALUE: 0.89
--
COMPOUND: CN1CCCCC1CCN1c2ccccc2Sc2ccc(S(C)=O)cc21 (configuration not stated)
DATA VALUE: 1.11
--
COMPOUND: CC(C)(Oc1ccc(Cl)cc1)C(=O)O
DATA VALUE: 1.11
--
COMPOUND: CC(CN(C)C)CN1c2ccccc2CCc2ccccc21 (configuration not stated)
DATA VALUE: 1.32

The value of normalised cell number measured for the compound CCOC(=O)[C@H](CCc1ccccc1)N[C@@H](C)C(=O)N1[C@H](C(=O)O)C[C@@H]2CCC[C@@H]21 turned out to be 1.1

Given item CCCCCC(C)N (configuration not stated) , the value recorded as its normalised cell number is 0.94

* * *

# ASSAY OVERVIEW: blockers of cytochrome c efflux from mitochondria – biochemical, purified mitochondria (AID 1603);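 further: mouse liver mitochondria challenged with calcium chloride; signal normalized to the plate average as 100%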
# EXPERIMENTAL CONDITIONS: stronger effect = lower value
RECORDED ENDPOINT: cytochrome c release ratio
Returns: the value as a bare number; no unit string appended.

These solved cases illustrate the format of a correct answer.
MOLECULE: O=C(N[C@H](CO)[C@H](O)c1ccc([N+](=O)[O-])cc1)C(Cl)Cl
RECORDED ENDPOINT: cytochrome c release ratio
DATA VALUE: 0.72

MOLECULE: O=c1cc(CO)occ1O
RECORDED ENDPOINT: cytochrome c release ratio
DATA VALUE: 0.94

MOLECULE: NS(=O)(=O)c1cc2c(cc1Cl)NC(CSCc1ccccc1)=NS2(=O)=O
RECORDED ENDPOINT: cytochrome c release ratio
DATA VALUE: 1.07

cytochrome c release ratio in this record for Cn1c(=O)c2c(ncn2C)n(C)c1=O : 1.5

cytochrome c release ratio measured on CCCCC1(COC(=O)CCC(=O)O)C(=O)N(c2ccccc2)N(c2ccccc2)C1=O = 1.09

Data point: Cc1cc(O)cc(C)c1Cl ; cytochrome c release ratio = 5.53

The reported value for O=C(O)c1ccc(S(=O)(=O)N(Cl)Cl)cc1 in terms of cytochrome c release ratio is 0.74

Note to self: cytochrome c release ratio recorded for C=CCc1ccccc1OCC(O)CNC(C)C (centres undefined) was 1.44

Just so you know, measured cytochrome c release ratio for CCN(CC)C(=O)c1cccc(C)c1 came out at 1.07

Reported cytochrome c release ratio for CC(=O)Oc1ccc(C(c2ccc(OC(C)=O)cc2)c2ccccn2)cc1 was 1.37

Notebook: Cc1c(NC(=O)c2cccnc2)c(=O)n(-c2ccccc2)n1C , cytochrome c release ratio read as 0.9

Entry under test: O=C(O)c1ccccc1Nc1cccc(C(F)(F)F)c1 . Its cytochrome c release ratio was 1.3

// cytochrome c release ratio lookup, molecule = Cc1cccc(N(C)C(=S)Oc2ccc3ccccc3c2)c1 , result: 0.96

For this molecule ( CN(C)CCOC(=O)C(c1ccccc1)C1(O)CCCC1 (centres undefined) ), measured cytochrome c release ratio is 0.87

Recorded cytochrome c release ratio (molecule CN1CCN(CC(=O)N2c3ccccc3C(=O)Nc3cccnc32)CC1 ): 1.27

Consider COC(=O)[C@H]1[C@H]2C[C@@H]3c4[nH]c5cc(OC)ccc5c4CCN3C[C@H]2C[C@@H](OC(=O)c2cc(OC)c(OC)c(OC)c2)[C@@H]1OC . Its measured cytochrome c release ratio is 1.46

Recorded cytochrome c release ratio (molecule COc1c2occc2c(OC)c2c(=O)cc(C)oc12 ): 1.14

What the record says about C=C1c2cccc(O)c2C(O)=C2C(=O)[C@]3(O)C(O)=C(C(N)=O)C(=O)[C@@H](N(C)C)[C@@H]3[C@@H](O)[C@H]12 : cytochrome c release ratio is 0.49

Field cytochrome c release ratio (entry Cc1ccc(C(C)C)cc2c(C)ccc1-2 ) reads 3.4

Value of measured cytochrome c release ratio for the entry Nc1c2c(nc3ccccc13)CCCC2O (centres undefined) : 0.96

Per the record, Cc1cc(C(C)(C)C)c(O)c(C)c1CC1=NCCN1 has cytochrome c release ratio of 0.88
